Can you tell me AUC(0-t) for the items I'm about to list?
# Protocol: Pharmacokinetics alone and in combination, selumetinib + erlotinib arm
# Condition context: human, plasma, oral, AUC(0–12), geometric mean (% CV); dosed in combination, selumetinib 75 mg BID (N = 6) + erlotinib 100 mg QD
Quick note: give the figure in ng·h/mL, leave out the unit.

Exercise: Tell me the measured AUC(0-t) of C#Cc1cccc(Nc2ncnc3cc(OCCOC)c(OCCOC)cc23)c1 [Erlotinib, reference compound] , please.
Solution: 14700

Exercise: Tell me the measured AUC(0-t) of Cn1cnc2c(F)c(Nc3ccc(Br)cc3Cl)c(C(=O)NOCCO)cc21 , please.
Solution: 4830
